Each recorded value in this set is attributed to patent US11357779B2.

- TEST METHOD NOTES: Noncompartmental pharmacokinetic parameters (Cmax, Tmax, AUC, Racc) in QD and BID cohorts of Form B
- Format: in vivo, human
- CONDITION SUMMARY: human, plasma, oral, 500 mg, Compound III; 500 mg QD of Form B; Cohort 4; Day 1; read-out: Cmax (Median)
MEASUREMENT LABEL: Cmax (ng/mL)
# unit: ng/mL | format: bare number

Cmax lookup needed for O=C1NCC2(CCCCC2)n2c1cc1cnc(Nc3ccc(N4CCNCC4)cn3)nc12 , thanks.
8.03

---

- TEST METHOD NOTES: Plasma concentration versus time of Compound I and metabolite Compound III in patients dosed QD or BID with Form B of Compound II plus fulvestrant
- Format: in vivo, human
- CONDITION SUMMARY: human, plasma, oral, 500 mg, Cohort 4, 500 mg QD of Form B, Day 29, 10.0 h; read-out: Compound III Concentration, Max
MEASUREMENT LABEL: concentration at 10 h (ng/mL)
# unit: ng/mL | format: bare number

concentration at 10 h lookup needed for O=C1NCC2(CCCCC2)n2c1cc1cnc(Nc3ccc(N4CCNCC4)cn3)nc12 , thanks.
2.88

---

- TEST METHOD NOTES: Plasma concentration versus time of Compound I and metabolite Compound III in patients dosed QD or BID with Form B of Compound II plus fulvestrant
- Type: in vivo, human
- CONDITION SUMMARY: human, plasma, oral, 200 mg, 200 mg QD of Form B, Day 29, 8.0 h, Median; read-out: Compound I Concentration
MEASUREMENT LABEL: concentration at 8 h (ng/mL)
# unit: ng/mL | format: bare number

concentration at 8 h lookup needed for CC(C)N1CCN(c2ccc(Nc3ncc4cc5n(c4n3)C3(CCCCC3)CNC5=O)nc2)CC1 , thanks.
12.1

---

- TEST METHOD NOTES: Noncompartmental pharmacokinetic parameters (Cmax, Tmax, AUC, Racc) in QD and BID cohorts of Form B
- Type: in vivo, human
- CONDITION SUMMARY: human, plasma, oral, 400 mg, Compound I; 400 mg QD of Form B; Cohort 3; Day 29; read-out: Cmax (Mean)
MEASUREMENT LABEL: Cmax (ng/mL)
# unit: ng/mL | format: bare number

Cmax lookup needed for CC(C)N1CCN(c2ccc(Nc3ncc4cc5n(c4n3)C3(CCCCC3)CNC5=O)nc2)CC1 , thanks.
19

---

- TEST METHOD NOTES: Plasma concentration versus time of Compound I and metabolite Compound III in patients dosed QD or BID with Form B of Compound II plus fulvestrant
- Format: in vivo, human
- CONDITION SUMMARY: human, plasma, oral, 200 mg, Cohort 8, 200 mg BID of Form B, Day 29, 10.0 h; read-out: Compound I Concentration, Mean
MEASUREMENT LABEL: concentration at 10 h (ng/mL)
# unit: ng/mL | format: bare number

concentration at 10 h lookup needed for CC(C)N1CCN(c2ccc(Nc3ncc4cc5n(c4n3)C3(CCCCC3)CNC5=O)nc2)CC1 , thanks.
18.6

---

- TEST METHOD NOTES: Noncompartmental pharmacokinetic parameters (Cmax, Tmax, AUC, Racc) in QD and BID cohorts of Form B
- Type: in vivo, human
- CONDITION SUMMARY: human, plasma, oral, 500 mg, Cohort 4, 500 mg QD of Form B, Day 1; read-out: Cmax, Mean
MEASUREMENT LABEL: Cmax (ng/mL)
# unit: ng/mL | format: bare number

Cmax lookup needed for CC(C)N1CCN(c2ccc(Nc3ncc4cc5n(c4n3)C3(CCCCC3)CNC5=O)nc2)CC1 [Compound I] , thanks.
48.9

---

- TEST METHOD NOTES: Noncompartmental pharmacokinetic parameters (Cmax, Tmax, AUC, Racc) in QD and BID cohorts of Form B
- Assay type: in vivo, human
- CONDITION SUMMARY: human, plasma, oral, 500 mg, Compound I; 500 mg QD of Form B; Cohort 4; Day 29; read-out: AUClast (Mean)
- Procedure: Analysis of plasma concentration versus time data for calculation of standard pharmacokinetic (PK) parameters following oral administration was conducted using Phoenix WinNonlin version 6.3 using actual blood sampling times. […]
MEASUREMENT LABEL: AUC(0-t) (ng·h/mL)
# unit: ng·h/mL | format: bare number

AUC(0-t) lookup needed for CC(C)N1CCN(c2ccc(Nc3ncc4cc5n(c4n3)C3(CCCCC3)CNC5=O)nc2)CC1 [Compound I] , thanks.
607

---

- TEST METHOD NOTES: Noncompartmental pharmacokinetic parameters (Cmax, Tmax, AUC, Racc) in QD and BID cohorts of Form B
- Type: in vivo, human
- CONDITION SUMMARY: human, plasma, oral, 650 mg, Cohort 5, 650 mg QD of Form B, Day 1; read-out: Cmax, Median
MEASUREMENT LABEL: Cmax

Cmax lookup needed for CC(C)N1CCN(c2ccc(Nc3ncc4cc5n(c4n3)C3(CCCCC3)CNC5=O)nc2)CC1 , thanks.
67 ng/mL

---

- TEST METHOD NOTES: Plasma concentration versus time of Compound I and metabolite Compound III in patients dosed QD or BID with Form B of Compound II plus fulvestrant
- Assay type: in vivo, human
- CONDITION SUMMARY: human, plasma, oral, 400 mg, 400 mg QD of Form B, Day 29, 3.0 h, Mean; read-out: Compound I Concentration
MEASUREMENT LABEL: concentration at 3 h (ng/mL)
# unit: ng/mL | format: bare number

concentration at 3 h lookup needed for CC(C)N1CCN(c2ccc(Nc3ncc4cc5n(c4n3)C3(CCCCC3)CNC5=O)nc2)CC1 [Compound I] , thanks.
14.2

---

- TEST METHOD NOTES: Plasma concentration versus time of Compound I and metabolite Compound III in patients dosed QD or BID with Form B of Compound II plus fulvestrant
- Type: in vivo, human
- CONDITION SUMMARY: human, plasma, oral, 400 mg, 400 mg QD of Form B, Day 29, 2.0 h, Mean; read-out: Compound I Concentration
MEASUREMENT LABEL: concentration at 2 h (ng/mL)
# unit: ng/mL | format: bare number

concentration at 2 h lookup needed for CC(C)N1CCN(c2ccc(Nc3ncc4cc5n(c4n3)C3(CCCCC3)CNC5=O)nc2)CC1 , thanks.
11.1

---

- TEST METHOD NOTES: clinical
- CONDITION SUMMARY: human, in vivo, 200 mg
MEASUREMENT LABEL: AUC(0-t) (ng·h/mL)
# unit: ng·h/mL | format: bare number

AUC(0-t) lookup needed for CC(C)N1CCN(c2ccc(Nc3ncc4cc5n(c4n3)C3(CCCCC3)CNC5=O)nc2)CC1 , thanks.
229

---

- TEST METHOD NOTES: Plasma concentration versus time of Compound I and metabolite Compound III in patients dosed QD or BID with Form B of Compound II plus fulvestrant
- Format: in vivo, human
- CONDITION SUMMARY: human, plasma, oral, 100 mg, Cohort 6, 100 mg BID of Form B, Day 29, 2.0 h; read-out: Compound I Concentration, Max
MEASUREMENT LABEL: concentration at 2 h (ng/mL)
# unit: ng/mL | format: bare number

concentration at 2 h lookup needed for CC(C)N1CCN(c2ccc(Nc3ncc4cc5n(c4n3)C3(CCCCC3)CNC5=O)nc2)CC1 , thanks.
19.6

---

- TEST METHOD NOTES: Plasma concentration versus time of Compound I and metabolite Compound III in patients dosed QD or BID with Form B of Compound II plus fulvestrant
- Assay type: in vivo, human
- CONDITION SUMMARY: human, plasma, oral, 100 mg, 100 mg BID of Form B, Day 1, 12.0 h, Median; read-out: Compound III Concentration
MEASUREMENT LABEL: concentration at 12 h (ng/mL)
# unit: ng/mL | format: bare number

concentration at 12 h lookup needed for O=C1NCC2(CCCCC2)n2c1cc1cnc(Nc3ccc(N4CCNCC4)cn3)nc12 , thanks.
0

---

- TEST METHOD NOTES: Plasma concentration versus time of Compound I and metabolite Compound III in patients dosed QD or BID with Form B of Compound II plus fulvestrant
- Assay type: in vivo, human
- CONDITION SUMMARY: human, plasma, oral, 400 mg, Cohort 3, 400 mg QD of Form B, Day 15; read-out: Trough Compound III Concentration, Median
MEASUREMENT LABEL: concentration at 15 day (ng/mL)
# unit: ng/mL | format: bare number

concentration at 15 day lookup needed for O=C1NCC2(CCCCC2)n2c1cc1cnc(Nc3ccc(N4CCNCC4)cn3)nc12 , thanks.
0.64

---

- TEST METHOD NOTES: Plasma concentration versus time of Compound I and metabolite Compound III in patients dosed QD or BID with Form B of Compound II plus fulvestrant
- Type: in vivo, human
- CONDITION SUMMARY: human, plasma, oral, 650 mg, Cohort 5, 650 mg QD of Form B, Day 29, 8.0 h; read-out: Compound III Concentration, Min
MEASUREMENT LABEL: concentration at 8 h (ng/mL)
# unit: ng/mL | format: bare number

concentration at 8 h lookup needed for O=C1NCC2(CCCCC2)n2c1cc1cnc(Nc3ccc(N4CCNCC4)cn3)nc12 , thanks.
5.18
